Values compiled from patent US20030212102A1.

experiment: Solubility and dissolution in simulated gastric fluid, USP Apparatus 2, non-sink conditions; format: physicochemical; conditions: simulated gastric fluid without enzymes, 37 °C, thermodynamic from solid; simulated gastric fluid without enzyme, pH 1.2; read-out: in vitro solubility

# chem.smiles, reading.unit, solubility
data = [
    ("CC[C@H](NC(=O)c1c(O)c(-c2ccccc2)nc2ccccc12)c1ccccc1", "mg/mL", 0.031),
]
